Values from ChEMBL document CHEMBL1126279

- Organism: Rattus norvegicus
- procedure.text: Inhibition of rat passive cutaneous anaphylaxis reaction; Inactive.
- Assay type: functional, organism-based
Activity calls are given as the source filed them. No cut-off for these calls is given here.
readout: ID50

>>> data_value("O=C(O)c1ccc(NC(=O)c2ccc([N+](=O)[O-])cc2)cc1")
"inactive"
>>> data_value("Cc1ccc(C(=O)Nc2cc(C(=O)O)cc(C(=O)O)c2)cc1")
"inactive"
>>> data_value("N#Cc1ccc(C(=O)Nc2cccc(C(=O)O)c2)cc1")
"inactive"
>>> data_value("COc1ccc(C(=O)Nc2cc(C(=O)O)cc(C(=O)O)c2)cc1OC")
"inactive"
>>> data_value("COc1cc(C(=O)Nc2cc(C(=O)O)cc(C(=O)O)c2)cc(OC)c1OC")
"inactive"
>>> data_value("N#Cc1ccc(C(=O)Nc2ccc(C(=O)O)cc2)cc1")
"inactive"
>>> data_value("O=C(O)c1cc(NC(=O)c2ccccc2)cc(C(=O)O)c1")
"inactive"
>>> data_value("N#Cc1ccc(NC(=O)c2ccc(C(=O)O)cc2)cc1")
"inactive"
>>> data_value("O=C(O)c1cc(NC(=O)c2ccc(Cl)cc2)cc(C(=O)O)c1")
"inactive"

---

- System: Rattus norvegicus
- procedure.text: Cytoprotective activity against ethanol-induced gastric lesions in male conscious rats; Inactive.
- Assay type: functional, organism-based
- experimental.context: Stomach
Active and inactive are the calls of the source. No cut-off for these calls is given here.
readout: ID50

>>> data_value("N#Cc1ccc(C(=O)Nc2ccc(C(=O)O)c(C(=O)O)c2)cc1")
"inactive"
>>> data_value("Cc1ccc(C(=O)Nc2cc(C(=O)O)cc(C(=O)O)c2)cc1")
"inactive"
>>> data_value("O=C(Nc1ccc(C(=O)O)c(C(=O)O)c1)c1ccc([N+](=O)[O-])cc1")
"inactive"
>>> data_value("O=C(O)c1cc(NC(=O)c2cccc(Cl)c2)cc(C(=O)O)c1")
"inactive"
>>> data_value("COc1cc(C(=O)Nc2cc(C(=O)O)cc(C(=O)O)c2)cc(OC)c1OC")
"inactive"
>>> data_value("N#Cc1ccc(C(=O)Nc2cc(CO)cc(C(=O)O)c2)cc1")
"inactive"
